Cited source: PubChem BioAssay (NCI)

System: OVCAR-3 ovarian
experiment-description: NCI-60 one-dose screen, 48 h (100 = growth as untreated, 0 = no growth, -100 = all killed)
applied-conditions: 10 µM unless noted
The panel holds about 83,000 compounds, 20% with a hit somewhere; the sample as a whole holds those more often.
parameter: growth (%)
Report only the number, with the unit % understood.

{"columns": ["compound", "growth / %"],
 "data": [
  ["Cc1c(O)c(N=Nc2ccc(C(=O)O)c(O)c2)c2ccccc2c1O", 108],
  ["COc1ccc(C(=O)N2N=C(c3ccc(Br)cc3)CC2c2cn(-c3ccccc3)nc2-c2ccccc2)cc1 (stereo not given)", 53.4],
  ["CC(=O)c1nn(-c2ccc(C)cc2)cc1C(=O)c1cc2c(ccc3ccccc32)oc1=O", 98.4],
  ["Brc1c(-c2ccncc2)nc2n1CCS2", 97.6]
]}

Now take the following compound into account.
Quick note, growth for CCCCCCCCCCCCOC(=O)/C=C\C(=O)NC(N)=O landed at 92.4

---

System: HOP-62 NSCLC
experiment-description: NCI-60 one-dose screen, 48 h
applied-conditions: 10 µM unless noted
This is part of a sample that, as a whole, favours compounds with a hit. Of some 83,000 tested, about 20% had one in any assay. Activity calls are given as the source filed them. The calls were made as follows: active = growth percent below 10; inactive = the rest.
Output constraint: value belongs to active, inactive

{"columns": ["compound", "group"],
 "data": [
  ["CN1CCN(Cc2ccc(NC(=O)c3cncc(C#Cc4c(N)ncc5ccc(F)cc45)c3)cc2C(F)(F)F)CC1", "inactive"],
  ["O=C1CCNC1", "inactive"],
  ["COC(=O)c1cc(Nc2ccc(O)c3c2C(=O)c2c([N+](=O)[O-])ccc(O)c2C3=O)cc(C(=O)OC)c1", "inactive"],
  ["C/C(=C\\c1ccc2ccccc2c1)[N+](=O)[O-]", "inactive"],
  ["COc1ccc(Nc2c3ccccc3nc3ccccc23)cc1", "inactive"]
]}

Would you mind telling me which call this test gave O=C(Nc1ccc(-n2cc(-c3ccncc3)c(-c3ccc(Cl)c(O)c3)n2)cc1)Nc1ccc(Cl)c(C(F)(F)F)c1 ? active

Lab log entry: COc1cccc(CNC(=O)c2cccc(C3CC(=O)c4c(cc(OC)c(OC)c4OC)O3)c2)c1 (stereo not given) — outcome as called in the assay? inactive

Please let me know the test result on file for COc1ccc(-c2nc(SCC(C)C)nc(Nc3ccc(C(=O)O)cc3)c2C#N)cc1 . inactive

Could you check what this test reported for O=C(CCC(=O)N(CCO)CCO)N(CCO)CCO ? inactive

Hi team, can someone confirm the assay call for CCn1cnc(C[C@H](NC(=O)[C@@H](NC(=O)Nc2cc(C(F)(F)F)cc(C(F)(F)F)c2)C(C)(C)C)C(=O)OC)c1 ? active

Called result for COc1ccc(/C(=C(\c2ccccc2)[N+](=O)[O-])c2ccc(OCCN3CCCC3)cc2)cc1 inactive

I would be grateful if you could indicate the recorded call for CCCCN(CCC)CCCCCCCCCCN1CCCc2ccccc21 . inactive

What was the test verdict on O=C(Nc1ccc(-n2cc(-c3ccncc3)c(-c3ccc(Cl)c(O)c3)n2)cc1)c1ccc(Cl)c(Cl)c1 ? active

Dear all, I need the recorded test outcome for CCCCCCC(C)N(CC(C)(C)O)C(=O)c1ccc([N+](=O)[O-])cc1 (stereo not given) , thank you. inactive

What did this assay record as the result for CC(=O)NCCN ? inactive

Hi team, can someone confirm the assay call for COC(=O)C(C(=O)OC)C(Br)C(Br)C(Br)c1ccccc1 (stereo not given) ? inactive

I would be grateful if you could indicate the recorded call for CCCCCCC(C(=O)OCC)(C(=O)OCC)C1CCCCCC1 . inactive

Which outcome was assigned to O=C(CBr)OCc1ccc([N+](=O)[O-])o1 in this test? inactive

What classification did COC(=O)[C@@H]1[C@H](O)[C@H](C)[C@H](O)[C@H](C)/C=C\C=C(C)C(=O)Nc2c(C)c(OC(C)=O)c3c(c2O)C(=O)C(C)=C2OCOC(=C23)C(C)=C[C@@](C)(O)[C@H](O)[C@@H](C)[C@H]1OC(C)=O end up with in this test? active

Outcome logged for COC(=O)C(N)CC(C)C (stereo not given) in this assay: inactive

Short answer needed: outcome of this test for Oc1ccc(Br)cc1/C=N/NC(=S)NC12CC3CC(CC(C3)C1)C2 ? inactive

---

Test system: MDA-MB-231 breast
experiment-description: NCI-60 one-dose screen, 48 h (100 = growth as untreated, 0 = no growth, -100 = all killed)
applied-conditions: 10 µM unless noted
This is part of a sample that, as a whole, favours compounds with a hit. Of some 83,000 tested, about 20% had one in any assay.
// growth lookup, one value per entry
Hi! Could you send only the number? It should be in %, unit omitted.

Worked examples follow.
{"columns": ["molecule", "obs-value"],
 "data": [
  ["CC(=O)NNC(=O)c1sc(NC(C)=O)nc1C", 100],
  ["COC(=O)/C(Br)=C/c1c[nH]c2ccc(Br)cc12", 80.9],
  ["CCOP1(=O)CC(C)=C(Cl)C(P(=O)(O)O)C1 (configuration not stated)", 100],
  ["COC(=O)c1c[n+]([O-])ccc1OC", 99.4],
  ["Cc1ccc([C@@H]2C[C@H](O)Cc3ccccc3N2)s1", 102]
]}

In the following, a different molecule is considered.
So, O=C(N/N=C\c1ccc(-c2ccc(Br)cc2)o1)c1cc2oc(-c3cccc(C(F)(F)F)c3)cc2[nH]1 ? Its growth was 111

---

Recorded growth for the following compounds
System: HCC-2998 colon
experiment-description: NCI-60 one-dose screen, 48 h (100 = growth as untreated, 0 = no growth, -100 = all killed)
applied-conditions: 10 µM unless noted
About 83,000 compounds went through this panel and 20% of them were active in at least one assay; those are over-represented in the sample as a whole.
The figure you give is taken to be in %; do not add the unit.

Below are worked cases with known answers.
{"columns": ["compound", "growth, %"],
 "data": [
  ["CC(=O)c1cc(Nc2cc(C)nc(N)n2)cc(C(C)=O)c1", 51.9],
  ["CCCNC(=O)Oc1ccc(/C(=C(/C)Cc2ccc(OC)cc2)c2ccc(OCCN3CCCC3)cc2)cc1", 62.5],
  ["COc1ccc2c(c1)/C(=C1/S/C(=N/c3nnc(C)s3)NC1=O)C(=O)N2Cc1ccc(Br)cc1", 46.1],
  ["COC(=O)Nc1nc2ccc(C(=O)c3ccccc3N(C)C3COC3)cc2[nH]1", 67.2],
  ["OCC(O)C(O)CC1SCCS1 (configuration not stated)", 108]
]}

Quick note, growth for O=C(Nc1ccc(-n2cc(-c3ccncc3)c(-c3ccc(Cl)c(O)c3)n2)cc1)c1cc(C(F)(F)F)cc(C(F)(F)F)c1 landed at 74.2

The recorded growth for Cc1c(O)c(N=Nc2ccc(C(=O)O)c(O)c2)c2ccccc2c1O is 118

For reference, reported growth for O=C(NC(=S)NNC(=S)NNc1ccccc1)c1ccccc1 stands at 50.7

Consider O=C(N/N=C\c1ccc(Cl)cc1)C(=O)N/N=C\c1ccc(Cl)cc1 . Its measured growth is 110

The value of growth measured for the compound COc1cc(CNC(=O)CCCC/C=C/C(C)C)ccc1OCc1nnc(Nc2ccccc2F)o1 turned out to be 90.8

# growth (compound: COc1ccc2cn3c4ccc(O)cc4[nH]c(=O)c3c2c1 ) is 19.3

// recorded growth for Cc1nnc(-c2cc3c(ccc4ccccc43)oc2=O)c2cn(-c3ccc(Cl)cc3)nc12 : 97.3

The value of growth measured for the compound Nc1cc2c(cc1Br)[nH]c(=O)c1ccccc12 turned out to be 68

Summary for this compound, COc1ccc(-c2cn3ccnc3c(-c3ccc4ncn(C5CCCCC5)c4c3)n2)cc1 : growth is 37.4

Input CCN(CC)C(=O)C1(C)CCCC2(C)c3cc(OC(C)=O)ccc3CCC12 (configuration not stated) . Output growth: 109

Short answer for Ic1ccc(SSc2ccc(I)cc2)cc1 : growth was 104

Entry under test: CC(C)(C)c1ccc(OCCOC(=O)CBr)cc1 . Its growth was 104

Lab book: growth of COc1cc(NC(C)CCCN)c2nccc(C)c2c1OC (configuration not stated) noted as 96.7

compound Nc1nc2c(c3cnccc13)C(c1cccc(Cl)c1)Cc1cnccc1-2 (configuration not stated) , growth observed: 41.7

// growth lookup, compound = CC(=O)Nc1nc(C)c(C(=O)N/N=C/N2CCOCC2)s1 , result: 157

Lab book: growth of CCOC1=C(Cl)C(=O)C(OCC)=C(Cl)C1=O noted as 91.2

Record CC1=C(C)C(=O)C(C(C)C2=C(C)C(=O)C(C)=C(C)C2=O)=C(C)C1=O , field growth: 23.4

---

Tested on: SK-MEL-5 melanoma
experiment-description: NCI-60 one-dose screen, 48 h (100 = growth as untreated, 0 = no growth, -100 = all killed)
applied-conditions: 10 µM unless noted
This is part of a sample that, as a whole, favours compounds with a hit. Of some 83,000 tested, about 20% had one in any assay.
Could you mark each record True if its growth falls strictly under 90%, and False if it equals or exceeds it?

Study these solved cases before continuing.
{"columns": ["compound", "group"],
 "data": [
  ["C/C(CCC(=O)O)=N/Nc1ccc([N+](=O)[O-])cc1", "True"],
  ["COc1cc2cc3cc4cc(OC)c(OC)cc4c(C)[n+]3cc2cc1OC (tested in a mixture with another compound)", "True"],
  ["O=C1C(=O)c2ccccc2C(O)=C1CCCc1ccc(C2CCCC2)cc1", "True"],
  ["CCCNC(=O)Oc1ccc(/C(=C(/CC)Cc2ccccc2)c2ccc(OCCN(CC)CC)cc2)cc1", "True"]
]}

For Cc1ccc(C(=O)NN)cc1 , is the recorded growth below the cut-off of 90%? False

hey, is growth for C/C=C(/C)C(=O)OC1C=C(CO)C(=O)C(OC(=O)/C(C)=C\C)C1C(C)C (stereo unspecified) lower than 90% or not? True

Would you kindly verify if growth of CC(=O)Nc1nc(C)c(C(=O)N/N=C/c2cccs2)s1 is strictly less than 90%? False

State whether 90% exceeds growth recorded for NCCCOc1cc2ccccc2cc1C(=O)Nc1ccc(Cl)cc1OC(=O)c1cc2ccccc2cc1OCCCN . True

Record CC1(C)C(O)NC(Cl)=C(C#N)C1(C#N)C#N (stereo unspecified) : is its growth strictly below 90%? False

Does the reported growth of CCN(CC)CCCNc1c2ccc(Cl)cc2nc2ccc(OC)cc12 stay below 90%? True
